Where do these numbers come from? They come from PubChem BioAssay AID793.

Entries and their inhibition
# ASSAYED SYSTEM: Neuropeptide Y receptor type 2 (Homo sapiens) (UniProt P49146)
# Sequence (P49146 whole entry, looked up): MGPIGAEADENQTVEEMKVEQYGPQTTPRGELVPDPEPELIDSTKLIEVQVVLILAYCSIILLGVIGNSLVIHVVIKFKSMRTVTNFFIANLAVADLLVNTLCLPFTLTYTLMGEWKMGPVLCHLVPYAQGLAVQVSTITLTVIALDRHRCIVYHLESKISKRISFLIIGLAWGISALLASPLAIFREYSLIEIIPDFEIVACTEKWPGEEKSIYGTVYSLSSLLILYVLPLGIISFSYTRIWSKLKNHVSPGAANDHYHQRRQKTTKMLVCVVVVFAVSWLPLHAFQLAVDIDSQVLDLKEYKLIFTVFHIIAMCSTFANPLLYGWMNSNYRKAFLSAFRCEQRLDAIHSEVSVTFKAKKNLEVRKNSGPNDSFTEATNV
# EXPERIMENTAL DETAILS: blockers of human neuropeptide Y Y2 receptor – cell-based, primary screen (AID 793);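 also: 0% = vehicle with agonist challenge and 100% = reference antagonist with challenge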
# ASSAY CONDITIONS: NPY-Y2 expressing cells, antagonist mode; at 2.7 µM; hits give high values
In all, about 140,000 compounds went through this assay and about 1,400 (1%) were called active. The list comes from a sample in which actives are over-represented; it also holds close analogues and randomly drawn compounds.

COMPOUND	inhibition [%]
COc1ccc(NC(C(=O)Nc2cccc(C(C)=O)c2)c2ccccc2)cc1 (stereo unspecified)	-1.54
CCOc1ccccc1NC(=O)CCc1ccc(C)o1	1.25
CC(C)CNC(=S)NC(=O)c1ccc(Cl)cc1	6.88
CCCc1[nH]nc2c1C(C1CC=CCC1)C(C#N)=C(N)O2 (stereo unspecified)	2.32
CCCc1[nH]nc2c1C(c1ccc(Br)s1)C(C#N)=C(N)O2 (stereo unspecified)	53.5
CCCc1[nH]nc2c1C(c1c(C)nn(-c3ccccc3)c1Cl)C(C#N)=C(N)O2 (stereo unspecified)	0.27

---

# ASSAYED SYSTEM: Neuropeptide Y receptor type 2 (Homo sapiens)
# EXPERIMENTAL DETAILS: blockers of human neuropeptide Y Y2 receptor – cell-based, primary screen (AID 793);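 also: 0% = vehicle with agonist challenge and 100% = reference antagonist with challenge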
# ASSAY CONDITIONS: NPY-Y2 expressing cells, antagonist mode; at 2.7 µM; hits give high values
The whole screen tested about 140,000 compounds, of which about 1,400 (1%) were called active. The entries come from a sample that favours actives as a whole.

MOLECULE	READING UNIT	inhibition
CCOC(=O)C1=C(C)NC(=O)NC1c1ccccc1 (stereo unspecified)	%	0.94
Cc1ccccc1NC(=O)c1ccc(COc2ccc3c(C)cc(=O)oc3c2)cc1	%	1.18
CCOC(=O)Cc1csc(SCC(=O)NC(C)C23CC4CC(CC(C4)C2)C3)n1 (stereo unspecified)	%	5.04
COc1ccc(CCn2nnnc2C(c2ccccc2)N2CCN(C)CC2)cc1OC (stereo unspecified)	%	5.97
CCOC(=O)/C(C#N)=C/c1ccc(N2CCN(Cc3ccccc3)CC2)cc1	%	5.28
O=c1c2ccccc2nc2n1C1(CCCCC1)Cc1ccccc1-2	%	21.2
N#Cc1ccc(N2Cc3ccccc3/C2=N/C(=O)Nc2ccc(Cl)cc2)cc1	%	108
Cc1cc(SCC(=O)c2ccccc2)nc(SCC(=O)c2ccccc2)n1	%	13.8
CCOC(=O)COc1ccc([N+](=O)[O-])cc1	%	1.59
CC(=O)NC(C)c1nc2ccccc2n1Cc1ccccc1F (stereo unspecified)	%	2.02
N=c1n(CCc2ccccc2)c2ccccc2n1Cc1ccccc1F	%	23.1
CCCCC(O)(CCCC)C(=O)NN(C(=O)CCl)c1ccccc1	%	21.9
Cc1ccc(N(NC(=O)C(C)(C)O)C(=O)c2ccccc2)cc1C	%	2.31
c1cncc(-c2nnc3n2C2(CCCCC2)Cc2ccccc2-3)c1	%	1.77
CCS(=O)(=O)n1nc(-c2ccccc2)nc1SCc1ccccc1	%	11.5
C=CCNC(=O)CCCOc1cccc(C)c1	%	1.38
COc1ccc(/C=C(/CC(=O)Nc2ccc(C)cc2)c2nc3ccccc3s2)cc1	%	3.93
O=C(CCN1C(=O)c2ccccc2C1=O)NNC(=O)c1ccc(Cl)cc1Cl	%	0.71
N#Cc1c(NC(=O)CCCN2C(=O)c3ccccc3C2=O)oc(-c2ccccc2)c1-c1ccccc1	%	20.4
CC(C)C(c1nnnn1CCc1ccccc1)N1CCN(C(=O)c2ccco2)CC1 (stereo unspecified)	%	3.59
CCCCN(CC)C(=O)c1ccccc1Oc1ccccc1	%	9.08
Cc1cccc(N2Cc3ccccc3C2=NC(=O)c2ccc(Cl)nc2)c1	%	1.24
O=C(CCCCCNC(=O)c1ccccc1)N/N=C/c1ccccc1	%	-0.13
C=CCNCCCCOc1ccccc1	%	28.3
COc1ccc(-c2csc3ncnc(Oc4ccc5c(C)cc(=O)oc5c4)c23)cc1	%	6.66
Cc1ccc(Sc2cc(N3CCOCC3)nc(-c3ccccc3)n2)cc1	%	-0.14
Cc1cccc(OCCNC(=O)CSc2ccc(C(F)(F)F)cc2[N+](=O)[O-])c1	%	12.7
Cc1cc(C(=O)N/N=C/c2cc([N+](=O)[O-])cc(C)c2O)n[nH]1	%	9.9
Cc1ccc(S(=O)(=O)c2ccc(Cl)cc2)cc1S(=O)(=O)NC(C(=O)O)C(C)C (stereo unspecified)	%	-0.6
Cc1ccsc1C(=O)N/N=C/c1ccc([N+](=O)[O-])cc1	%	1.67
Cc1ccccc1N1CCN(CCCOc2ccc3c(C)cc(=O)oc3c2)CC1	%	22.1
Cc1nnc(NC(=O)/C=C/c2ccco2)s1	%	10.7
Cc1cc(Oc2ccc(Cl)cc2)nc(SCC(=O)c2ccccc2)n1	%	48.6
CCN1CCC2(CC1)N=C(c1ccc(F)cc1)C(=S)N2C(=O)c1ccc(C)cc1	%	1.56
C/C(=N\NC(=O)CNC(=O)C(c1ccccc1)c1ccccc1)c1ccc(C)cc1	%	1.86
CCOC12CC(C)(C)CC(C)(CC3=C1C(=O)CC(C)(C)C3)C2 (stereo unspecified)	%	3.39
COc1ccc(/C=N/N=C/c2c[nH]c(=O)c(C#N)c2Nc2ccccc2)cc1	%	3.81
COC(=O)c1cc(C(=O)CSc2nc(C)cc(C)n2)ccc1O	%	4.06
Cc1cc(=O)oc2cc(OCC3CC(c4ccccc4Cl)=NO3)ccc12 (stereo unspecified)	%	10.7
Cc1ccc(CC(=O)Nc2ccc(OC(F)F)c(Cl)c2)cc1C	%	1.54
O=C(Nc1cn(-c2ccccc2)nc1-c1ccccc1)c1ccccc1	%	9.26
O=C(NCCOc1ccccc1)c1ccccc1	%	0.21
CN(Cc1ccccc1)Cc1ccccc1F	%	1.28
CNC(=S)NNC(=O)c1sccc1OCc1ccccc1	%	-0.16
CC1CN(S(=O)(=O)c2ccc(C(=O)Nc3sccc3C(N)=O)cc2)CC(C)O1 (stereo unspecified)	%	-0.61
O=C(COC(=O)c1cc([N+](=O)[O-])ccc1NCc1ccccc1)NC1CCCCC1	%	5.74

---

# ASSAYED SYSTEM: Neuropeptide Y receptor type 2 (Homo sapiens)
# EXPERIMENTAL DETAILS: blockers of human neuropeptide Y Y2 receptor – cell-based, primary screen (AID 793);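 also: 0% = vehicle with agonist challenge and 100% = reference antagonist with challenge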
# ASSAY CONDITIONS: NPY-Y2 expressing cells, antagonist mode; at 2.7 µM; hits give high values
In all, about 140,000 compounds went through this assay and about 1,400 (1%) were called active. The sample holds actives, similar compounds and a random draw of the others, so the mix is not that of the screen.
PARAMETER: inhibition (%)

COMPOUND	PARAMETER	READING UNIT	VALUE MEASURED
COc1ccc(-c2nc3ccccc3n2CCC(C)C)cc1OC	inhibition	%	19.5
COc1ccccc1Nc1ncnc2c1oc1ccccc12	inhibition	%	19.4
CCCn1c(C(O)c2cc(OC)ccc2OC)nc2ccccc21 (stereo unspecified)	inhibition	%	4.69
COCCn1c(-c2ccc(OC)c(OC)c2)nc2ccccc21	inhibition	%	1.52
CCc1nc(Nc2ccc3nccnc3c2)c2oc3ccccc3c2n1	inhibition	%	-2.05
COC(=O)C1NN=C(C(=O)c2ccc(Br)cc2)C1c1cccc(Br)c1 (stereo unspecified)	inhibition	%	0.05

---

# ASSAYED SYSTEM: Neuropeptide Y receptor type 2 (Homo sapiens) (UniProt P49146)
# EXPERIMENTAL DETAILS: blockers of human neuropeptide Y Y2 receptor – cell-based, primary screen (AID 793);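 also: 0% = vehicle with agonist challenge and 100% = reference antagonist with challenge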
# ASSAY CONDITIONS: NPY-Y2 expressing cells, antagonist mode; at 2.7 µM
Screen size: about 140,000 compounds; about 1,400 (1%) were called active. Cut-off read from the data, not from the text of the source: active = inhibition above about 17%; inactive = the rest. Shown is part of a subset that was picked to be rich in actives.
Possible outcomes: true (1) = active, false (0) = inactive

COMPOUND	CLASS
CCC(c1nnnn1C1CCCC1)N(Cc1cccs1)Cc1cc2cccc(C)c2[nH]c1=O (stereo not given)	true (1)
O=C(Nc1ccccc1N1CCCCC1)c1cccc(F)c1	false (0)
Cc1cccc2cc(CN(Cc3ccc4c(c3)OCO4)Cc3nnnn3C3CCCC3)c(=O)[nH]c12	false (0)
CC1CCCCN1CC(=O)NCc1ccc2c(c1)OCO2 (stereo not given)	false (0)
O=C(Nc1ccccc1N1CCN(c2ccccc2)CC1)c1cccc(F)c1	true (1)
CC(Sc1nc2ccccc2c(=O)n1Cc1ccco1)C(=O)c1ccccc1 (stereo not given)	false (0)
Cc1ccc(NC(=O)CN2CCC3(O)CCCCC3C2c2ccc3c(c2)OCO3)c(C)c1 (stereo not given)	true (1)
CC(C)N1C(=O)N(c2ccccc2)C(C)(O)CC1(C)C (stereo not given)	false (0)
Cc1cccc(C(=O)Nc2ccccc2N2CCN(c3ccc(F)cc3)CC2)c1	false (0)
Cc1cccc2cc(CN(Cc3cccs3)C(c3nnnn3C3CCCC3)C(C)C)c(=O)[nH]c12 (stereo not given)	false (0)

---

Entries and their inhibition
# ASSAYED SYSTEM: Neuropeptide Y receptor type 2 (Homo sapiens)
# EXPERIMENTAL DETAILS: blockers of human neuropeptide Y Y2 receptor – cell-based, primary screen (AID 793);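 also: 0% = vehicle with agonist challenge and 100% = reference antagonist with challenge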
# ASSAY CONDITIONS: NPY-Y2 expressing cells, antagonist mode; at 2.7 µM; hits give high values
About 1,400 (1%) of roughly 140,000 compounds were called active. For the sample, actives were picked, then their nearest neighbours and some compounds at random.

SMILES REPRESENTATION	inhibition
COc1ccc(-c2cc(C(=O)n3cnc4ccccc43)c3ccccc3n2)cc1	58.8% (active)
C/C(N)=C(/C#N)C(=O)COC(=O)c1cc(-c2ccc(C)cc2)nc2ccccc12	-0.91% (inactive)
Cc1ccc(OCC(=O)Nn2cnc3ccccc32)cc1	2.86% (inactive)
C/C(=C/C(=O)N1CCN(C)CC1)C(=O)O	1.55% (inactive)
O=C(N/N=C/c1ccc(Br)o1)c1cncc(Br)c1	0.35% (inactive)
CCOn1c(SC(C)C)nc2ccccc2c1=O	7.2% (inactive)
